# Tested on: MCF-7
# Protocol Text: MTT assay (anti-proliferative activity)
# Type: cell-based
# Experimental Context: 96 h continual exposure, read-out: IC 50 MCF-7
pIC50: −log10 of the molar value.
Reported Metric: pIC50

Would you please look over these solved cases?
1. CCCCCCCC/C=C\CCCCCCCCNC(=O)c1ccc2c(c1O)C(=O)OC(C)C2 (racemic) [ALM-52, Oleyl Amide] = 4.67
2. C[C@@H]1Cc2ccc(C(=O)N[C@@H](Cc3ccccc3)C(=O)O)c(O)c2C(=O)O1 [ALM-32, ochratoxin B] = 4.72

[I] CCCCCCNC(=O)c1ccc2c(c1O)C(=O)OC(C)C2 (racemic) [ALM-49, Hexyl Amide]
[II] CCCCCCN(C)C(=O)c1ccc2c(c1O)C(=O)OC(C)C2 (racemic) [ALM-50, N-Methyl-N-Hexyl Amide]
Query: Determine, for I and II , which has the greater value of pIC50. Record your answer as the label of the chosen record.
Response: I
